Hey, just so you know, these numbers are from patent US20250009713A1.

# Tested on: SARS-COV-2 England/204820464/2020 (alpha variant; NR-54000)
# TEST DESCRIPTION: microbe, parasite or virus in culture
# Type: cell-based
# CONDITION: Severe acute respiratory syndrome coronavirus 2; Plaque; Vero; virus UK; m.o.i 0.1; […]
pEC50: −log10 of the molar value.

CHEMICAL SMILES	pEC50
Cn1cc(-c2cccc3cc(C(=O)NC(=N)N)ccc23)cn1	5.17

----------
# Test system: SARS-COV-2 USA/MD-HP20874/2021 (omicron variant; NR-56461)
# TEST DESCRIPTION: microbe, parasite or virus in culture
# Format: cell-based
# CONDITION: Severe acute respiratory syndrome coronavirus 2; Plaque; Calu-3; virus Omicron; m.o.i 0.1; […]

CHEMICAL SMILES	TARGET OF ASSAY	UNITS SYMBOL	EC50
Cn1cc(-c2cccc3cc(C(=O)NC(=N)N)ccc23)cn1	SARS-COV-2 USA/MD-HP20874/2021 (omicron variant; NR-56461)	µM	7.61
